experiment: Quantitative High-Throughput drug screen in 47 multiple myeloma cell lines against the NCATS MIPE library collection: KMS27_JCRB cell viability assay (AID 1918970); conditions: KMS27 myeloma cells, CellTiter-Glo ATP viability, 48 h; further: nearly all actives have a fitted effect of over 30% in size
Records with an inconclusive call do not appear. Active and inactive are the calls of the source. The call rests on the fitted dose curve; in most records, active means well fitted cell-killing curve with a large enough effect; inconclusive means small, poorly fitted or top-dose-only effect, or effect the other way; inactive means no such curve, though single readings can be large or run the other way.
Select the matching outcome among t (active), f (inactive)

{"columns": ["COMPOUND", "DISCRETE_LABEL"],
 "data": [
  ["Oc1cc2c(cc1O)C1c3ccc(O)c(O)c3OCC1(O)C2 (stereo not given)", "f"],
  ["O=C(C=Cc1ccc(CN(CCO)CCc2c[nH]c3ccccc23)cc1)NO", "t"],
  ["CCCCCCCN(CC)CCCC(O)c1ccc(NS(C)(=O)=O)cc1 (stereo not given)", "t"],
  ["C[C@H](NCc1ccc2c(c1)nc(NC(=O)c1ccc(-c3cn[nH]c3)s1)n2CCc1ccccc1)C(C)(C)C", "t"],
  ["O=C(Nc1nnc(-c2ccco2)o1)c1cc(-c2ccccc2)nc2ccccc12", "t"]
]}

Request: I would be grateful if you could indicate the recorded call for CCC(C=C[C@@H]1OC(=O)C=C[C@H]1C)=C[C@H](C)CC=CC(C)=C[C@@H](C)C(=O)[C@@H](C)[C@H](O)[C@@H](C)CC(C)=CC(=O)O .
Response: t

Request: Queued: COc1ccnc2[nH]cc(C(=O)C(=O)N3CCN(C(=O)c4ccccc4)C[C@@H]3C)c12
Response: f

Request: Queued: COc1ccc(Nc2nccc(NCCO)n2)cc1
Response: f

###

assay: qHTS profiling of the MIPE4 collection as inhibitors of Plasmodium falciparum (DD2) proliferation (Rep 2) (AID 743346); conditions: P. falciparum Dd2 in erythrocytes, SYBR Green DNA, 72 h; at 28.5 µM (top of the series) unless noted
API: label(entry) gives Criterion met if the entry's parasite growth, % of control (lower = inhibition) is strictly smaller than 30%; on equality or larger values it gives Criterion not met.

Below are worked cases with known answers.
{"columns": ["COMPOUND", "DISCRETE_LABEL"],
 "data": [
  ["Cn1cc(C2=C(c3c4n(c5ccccc35)CCC(CN)C4)C(=O)NC2=O)c2ccccc21 (centres undefined)", "Criterion met"],
  ["Nc1ccn(C2CO[C@H](CO)O2)c(=O)n1 (some centres undefined)", "Criterion not met"],
  ["N[C@H]1CN(c2c(F)cc3c(=O)c(C(=O)O)cn(C4C[C@@H]4F)c3c2Cl)CC12CC2 (some centres undefined)", "Criterion met"],
  ["C=CC(=O)Nc1cc(NC(=O)c2ccc(C)c(NC(=O)c3ccno3)c2)cc(C(F)(F)F)c1", "Criterion not met"],
  ["COc1ccc(Nc2cc(-c3cnc(N)nc3)nc(N3CCOCC3)n2)cn1", "Criterion met"]
]}

Request: Strictly below 30%: is that where parasite growth, % of control (lower = inhibition) of CN1CCc2c(c3ccccc3n2Cc2ccc(C(=O)NO)cc2)C1 sits?
Response: Criterion met

Request: Queued: C=CC(=O)Nc1ccc2ncnc(Nc3ccc(OCc4cccc(F)c4)c(Cl)c3)c2c1
Response: Criterion met

Request: Queued: COc1ccc(CCC(=O)c2c(O)cc(O[C@@H]3O[C@H](CO)[C@@H](O)[C@H](O)[C@@H]3O[C@@H]3O[C@@H](C)[C@H](O)[C@@H](O)[C@@H]3O)cc2O)cc1O
Response: Criterion not met

Request: Queued: CC(C)Oc1ccc(C(=O)N[C@H](CNC(=O)CN(C)C)Cc2ccc(-c3cn4cccc([C@H](C)O)c4n3)cc2)cc1Cl
Response: Criterion met

Request: Queued: NC(=O)c1ncn([C@@H]2O[C@H](CO)[C@@H](O)[C@@H]2O)c1N
Response: Criterion not met

Request: Queued: N#Cc1cc(NC(=O)Nc2nnc(-c3ccncc3)s2)ccc1-c1cn[nH]c1
Response: Criterion not met

Request: Queued: C=C(C)[C@@H]1CC[C@]2(C)CC[C@]3(C)[C@H](CC[C@@H]4[C@@]5(C)CC[C@H](O)C(C)(C)[C@H]5CC[C@]43C)[C@@H]12
Response: Criterion not met

Request: Queued: C[C@H](NC(=O)[C@@H](O)c1cc(F)cc(F)c1)C(=O)N[C@@H]1C(=O)N(C)c2ccccc2-c2ccccc21
Response: Criterion met

Request: Queued: COC(=O)[C@@H]1[C@H]2C[C@@H]3c4[nH]c5ccccc5c4CCN3C[C@@H]2CC[C@@H]1O
Response: Criterion not met

Request: Queued: NC(=NCCCCCCN=C(N)N=C(N)Nc1ccc(Cl)cc1)N=C(N)Nc1ccc(Cl)cc1
Response: Criterion met

Request: Queued: CCCCCN=C(N)NN=Cc1c[nH]c2ccc(OC)cc12
Response: Criterion met

Request: Queued: Nc1cccc2c1C(=O)N(C1CCC(=O)NC1=O)C2=O (centres undefined)
Response: Criterion not met

Request: Queued: COc1cc(N2CCC(C(N)=O)CC2)ccc1Nc1nc(N)c(Cl)c(Nc2ccccc2S(=O)(=O)C(C)C)n1
Response: Criterion not met

Request: Queued: CC(C)n1cnc2c(NCCc3ccc(O)cc3)nc(-c3csc4ccccc34)nc21
Response: Criterion met

Request: Queued: CC(=O)N1CCN(c2ccc(OCc3nn(C)c(C)c3-c3cccc4c(CCCOc5cccc6ccccc56)c(C(=O)O)n(Cc5cccnc5)c34)cc2)CC1
Response: Criterion met

###

test: Quantitative High-Throughput drug screen in 47 multiple myeloma cell lines against the NCATS MIPE library collection: MMM1_PLB cell viability assay (AID 1918976); conditions: MMM1 myeloma cells viability, CellTiter-Glo, 48 h; series mostly up to 45.8 µM; further: nearly all actives have a fitted effect of over 35% in size
Records with an inconclusive call do not appear. Calls of active or inactive are those of the source. Calls follow the shape of the dose curve; as a rule, active = well fitted cell-killing curve with a large enough effect; inconclusive = small, poorly fitted or top-dose-only effect, or effect the other way; inactive = no such curve, though single readings can be large or run the other way.
Select the matching outcome among True (active), False (inactive)

Below are worked cases with known answers.
{"columns": ["MOLECULE", "DISCRETE_LABEL"],
 "data": [
  ["Cc1ccc2nc(NCCN)c3ncc(C)n3c2c1", "True"],
  ["Cc1cnc(Nc2ccc(CN3CCOCC3)cc2)nc1Nc1cccc(S(=O)(=O)NC(C)(C)C)c1", "True"],
  ["Cc1coc2c1C(=O)C(=O)c1c-2ccc2c(C)cccc12", "True"],
  ["C=CCNC1=C2C[C@@H](C)C[C@H](OC)[C@@H](O)[C@@H](C)C=C(C)[C@H](OC(N)=O)[C@@H](OC)C=CC=C(C)C(=O)NC(=CC1=O)C2=O", "True"]
]}

Request: I would be grateful if you could indicate the recorded call for NC(=O)Nc1sc(-c2ccc(F)cc2)cc1C(N)=O .
Response: True

Request: Queued: CCN(CC)CCNC(=O)c1c(C)[nH]c(C=C2C(=O)Nc3ccc(F)cc32)c1C
Response: True

Request: Queued: CCOC(=O)[C@@H](N)Cc1ccc(-c2cc(O[C@H](c3ccc(Cl)cc3-n3ccc(C)n3)C(F)(F)F)nc(N)n2)cc1
Response: True

###

Assay: qHTS of pediatric cancer cell lines to identify multiple opportunities for drug repurposing: Primary screen for NB-EBc1 cells (AID 1347095)
Settings: NB-EBc1 neuroblastoma viability, CellTiter-Glo luminescence, 48 h; series mostly up to 46 µM
Protocol: Drug repurposing or repositioning has been offered as a strategy for drug development in oncology programs. This approach has special potential for childhood cancers and other rare or orphan diseases, where the expected return on new drug development has been a disincentive to pharmaceuticals. […] We employed a titration-based paradigm (quantitative high-throughput screening or qHTS), where all compounds were tested at multiple concentrations for their effect on cell viability. […]
Inconclusive results are not listed. Activity calls are given as the source filed them. Calls come from the whole dose curve; as a rule, active = well fitted cell-killing curve with a large enough effect; inconclusive = small, poorly fitted or top-dose-only effect; inactive = no such curve, though single readings can be large or run the other way.
Select the matching outcome among yes (active), no (inactive)

{"columns": ["COMPOUND", "DISCRETE_LABEL"],
 "data": [
  ["CCn1c(=O)c2c(nc(C=Cc3ccc(OC)c(OC)c3)n2C)n(CC)c1=O", "no"],
  ["CC(C)N(CC[C@H](c1ccccc1)c1cc(CO)ccc1O)C(C)C", "no"],
  ["C=CC(=O)Nc1cccc(Nc2nc(NC3CCC(N(C)C)CC3)nc3c2ncn3C(C)C)c1 (stereo not drawn)", "yes"],
  ["CN[C@@H]1C[C@H]2O[C@@](C)([C@H]1OC)n1c3ccccc3c3c4c(c5c6ccccc6n2c5c31)C(=O)N[C@H]4O", "yes"],
  ["C[C@@H]1CC[C@@]2(OC1)OC1CC3C4CC=C5CC(O)CCC5(C)C4CCC3(C)C1[C@@H]2C (stereo partly drawn)", "no"]
]}

Request: I would be grateful if you could indicate the recorded call for Nc1ccn(C2CO[C@H](CO)O2)c(=O)n1 (stereo partly drawn) .
Response: no

Request: Queued: O=C(NCc1ccccc1)[C@H](Cc1ccccc1)NC(=O)[C@@H]1O[C@@H]1C(=O)NCCc1ccc(O)cc1
Response: no

Request: Queued: COC(=O)[C@@H]1[C@H]2C[C@@H]3c4[nH]c5ccccc5c4CCN3C[C@@H]2CC[C@@H]1O
Response: no

Request: Queued: O=C(O)C=Cc1ccc(Cn2ccnc2)cc1
Response: no

Request: Queued: FC(F)c1nc2ccccc2n1-c1nc(N2CCOCC2)nc(N2CCOCC2)n1
Response: yes

Request: Queued: CC(=O)N1CCN(c2ccc(OCc3nn(C)c(C)c3-c3cccc4c(CCCOc5cccc6ccccc56)c(C(=O)O)n(Cc5cccnc5)c34)cc2)CC1
Response: yes

Request: Queued: NC(=O)c1ncn([C@@H]2O[C@H](CO)[C@@H](O)[C@@H]2O)c1O
Response: no

Request: Queued: OCCN1C[C@H](O)[C@@H](O)[C@H](O)[C@@H]1CO
Response: no

Request: Queued: CC[C@@]1([C@@H]2O[C@@H]([C@H]3O[C@@](O)(CO)[C@H](C)C[C@H]3C)C[C@H]2C)CC[C@H]([C@]2(C)CC[C@]3(C[C@H](O)[C@@H](C)[C@@H]([C@@H](C)[C@@H](OC)[C@H](C)C(=O)O)O3)O2)O1
Response: yes

Request: Queued: CN[C@H]1[C@@H](O)[C@@H]2O[C@@H]3O[C@H](C)CC(=O)[C@]3(O)O[C@@H]2[C@@H](NC)[C@H]1O
Response: yes

Request: Queued: CON=C(C(=O)N[C@@H]1C(=O)N2C(C(=O)O)=C(Cn3ccc(=N)n3CCO)CS[C@H]12)c1csc(N)n1
Response: no

Request: Queued: CC(C)(C)[N+]([O-])=Cc1ccc(S(=O)(=O)O)cc1S(=O)(=O)O
Response: no

Request: Queued: C=C1C[C@@]2(O)O[C@@]3(C[C@H]2C(C)C)[C@H](C)CC[C@H]13
Response: no
